- assay-info: Clinical pharmacokinetics: plasma CYH33 and I27 by LC/MS/MS
- Assay type: in vivo, human
- setup-conditions: human, plasma, oral; C1D1, 40 mg, 0.5 h
parameter: concentration at 0.5 h (ng/mL)
Please respond with the number in ng/mL and leave the unit unwritten.

Q. Please report the recorded concentration at 0.5 h for COC(=O)Nc1cc(C(F)(F)F)c(-c2nc(N3CCOCC3)c3cc(CN4CCN(S(C)(=O)=O)CC4)cn3n2)cn1 [CYH33] .
A. 33.8

###

- assay-info: Clinical pharmacokinetics: plasma CYH33 and I27 by LC/MS/MS
- Type: in vivo, human
- setup-conditions: C1D28, 1 mg, 24 h
parameter: CYH33 plasma concentration, mean (ng/mL)
The reply should be a number in ng/mL, with the unit left off.

Q. Consider the molecule COC(=O)Nc1cc(C(F)(F)F)c(-c2nc(N3CCOCC3)c3cc(CN4CCN(S(C)(=O)=O)CC4)cn3n2)cn1 and give its measured CYH33 plasma concentration, mean.
A. 0

###

- assay-info: Clinical pharmacokinetics: plasma CYH33 and I27 by LC/MS/MS
- Format: in vivo, human
- setup-conditions: C1D1, 10 mg, 36 h
parameter: CYH33 plasma concentration, mean (ng/mL)
# number only, unit ng/mL dropped from output

Q. Name the recorded CYH33 plasma concentration, mean for COC(=O)Nc1cc(C(F)(F)F)c(-c2nc(N3CCOCC3)c3cc(CN4CCN(S(C)(=O)=O)CC4)cn3n2)cn1 .
A. 9.3

###

- assay-info: Clinical pharmacokinetics: plasma CYH33 and I27 by LC/MS/MS
- Type: in vivo, human
- setup-conditions: C1D28, 5 mg, 12 h
parameter: CYH33 plasma concentration, mean (ng/mL)
Hi! Could you send only the number? It should be in ng/mL, unit omitted.

Q. Return reported CYH33 plasma concentration, mean; argument: COC(=O)Nc1cc(C(F)(F)F)c(-c2nc(N3CCOCC3)c3cc(CN4CCN(S(C)(=O)=O)CC4)cn3n2)cn1
A. 20

###

- assay-info: Clinical pharmacokinetics: plasma CYH33 and I27 by LC/MS/MS
- Assay type: in vivo, human
- setup-conditions: human, plasma, oral; C1D1, 20 mg, 24 h
parameter: concentration at 24 h (ng/mL)
API: value field is a number in ng/mL; no unit string.

Q. Give its concentration at 24 h value. Item: COC(=O)Nc1cc(C(F)(F)F)c(-c2nc(N3CCOCC3)c3cc(CN4CCN(S(C)(=O)=O)CC4)cn3n2)cn1
A. 22.3

###

- assay-info: Clinical pharmacokinetics: plasma CYH33 and I27 by LC/MS/MS
- Type: in vivo, human
- setup-conditions: C1D28, 60 mg, 3 h
parameter: CYH33 plasma concentration, mean

Q. What measured CYH33 plasma concentration, mean goes with COC(=O)Nc1cc(C(F)(F)F)c(-c2nc(N3CCOCC3)c3cc(CN4CCN(S(C)(=O)=O)CC4)cn3n2)cn1 [CYH33] ?
A. 193 ng/mL

###

- assay-info: Clinical pharmacokinetics: plasma CYH33 and I27 by LC/MS/MS
- Assay type: in vivo, human
- setup-conditions: human, plasma, oral; C1D1, 10 mg, 4 h
parameter: concentration at 4 h (ng/mL)
# output: bare number, implied unit ng/mL

Q. What does the record list as concentration at 4 h for COC(=O)Nc1cc(C(F)(F)F)c(-c2nc(N3CCOCC3)c3cc(CN4CCN(S(C)(=O)=O)CC4)cn3n2)cn1 ?
A. 43.1

###

- assay-info: Clinical pharmacokinetics: plasma CYH33 and I27 by LC/MS/MS
- Assay type: in vivo, human
- setup-conditions: human, plasma, oral; C1D28, 60 mg, 0 h
parameter: concentration at 0 h (ng/mL)
Response body: numeric value in ng/mL, unit text excluded.

Q. // concentration at 0 h lookup, key: COC(=O)Nc1cc(C(F)(F)F)c(-c2nc(N3CCOCC3)c3cc(CN4CCN(S(C)(=O)=O)CC4)cn3n2)cn1
A. 147

###

- assay-info: Clinical pharmacokinetics: plasma CYH33 and I27 by LC/MS/MS
- Assay type: in vivo, human
- setup-conditions: C1D28, 5 mg, 1 h
parameter: CYH33 plasma concentration, mean (ng/mL)
# number only, unit ng/mL dropped from output

Q. Reported CYH33 plasma concentration, mean, molecule COC(=O)Nc1cc(C(F)(F)F)c(-c2nc(N3CCOCC3)c3cc(CN4CCN(S(C)(=O)=O)CC4)cn3n2)cn1 [CYH33] : ____
A. 56.2

###

- assay-info: Clinical pharmacokinetics: plasma CYH33 and I27 by LC/MS/MS
- Type: in vivo, human
- setup-conditions: human, plasma, oral, 1 mg, CYH33, Cycle 1 Day 28, 1 mg (n=1); read-out: AUC0-24h, mean
parameter: AUC(0-t)
Include the unit after the number when you answer.

Q. For COC(=O)Nc1cc(C(F)(F)F)c(-c2nc(N3CCOCC3)c3cc(CN4CCN(S(C)(=O)=O)CC4)cn3n2)cn1 , what is its reported AUC(0-t)?
A. 51.6 ng·h/mL

###

- assay-info: Clinical pharmacokinetics: plasma CYH33 and I27 by LC/MS/MS
- Format: in vivo, human
- setup-conditions: C1D1, 5 mg, 48 h
parameter: CYH33 plasma concentration, mean (ng/mL)
Numbers only here, please. The scale is ng/mL.

Q. Please report the recorded CYH33 plasma concentration, mean for COC(=O)Nc1cc(C(F)(F)F)c(-c2nc(N3CCOCC3)c3cc(CN4CCN(S(C)(=O)=O)CC4)cn3n2)cn1 [CYH33] .
A. 2.5

###

- assay-info: Clinical pharmacokinetics: plasma CYH33 and I27 by LC/MS/MS
- Assay type: in vivo, human
- setup-conditions: human, plasma, oral, 10 mg, CYH33, Cycle 1 Day 1, 10 mg (n = 2); read-out: Tmax, median (min-max)
parameter: Tmax (h)
Entry rule: numbers only, all in h.

Q. What value of Tmax has been reported for the following compound? COC(=O)Nc1cc(C(F)(F)F)c(-c2nc(N3CCOCC3)c3cc(CN4CCN(S(C)(=O)=O)CC4)cn3n2)cn1
A. 4

###

- assay-info: Clinical pharmacokinetics: plasma CYH33 and I27 by LC/MS/MS
- Assay type: in vivo, human
- setup-conditions: human, plasma, oral, 30 mg, CYH33, Cycle 1 Day 28, 30 mg (n=9); read-out: Cmax, mean
parameter: Cmax (ng/mL)
Write down the numeric answer in ng/mL and omit the unit.

Q. Given the entry COC(=O)Nc1cc(C(F)(F)F)c(-c2nc(N3CCOCC3)c3cc(CN4CCN(S(C)(=O)=O)CC4)cn3n2)cn1 , report its measured Cmax.
A. 187

###

- assay-info: Clinical pharmacokinetics: plasma CYH33 and I27 by LC/MS/MS
- Format: in vivo, human
- setup-conditions: C1D28, 60 mg, 6 h
parameter: CYH33 plasma concentration, mean
Reply with the number, then its unit.

Q. Need CYH33 plasma concentration, mean, item COC(=O)Nc1cc(C(F)(F)F)c(-c2nc(N3CCOCC3)c3cc(CN4CCN(S(C)(=O)=O)CC4)cn3n2)cn1 [CYH33]
A. 205 ng/mL

###

- assay-info: Clinical pharmacokinetics: plasma CYH33 and I27 by LC/MS/MS
- Format: in vivo, human
- setup-conditions: human, plasma, oral, 20 mg, CYH33, Cycle 1 Day 1, 20 mg (n = 5); read-out: AUC0-24h, mean (CV%)
parameter: AUC(0-t) (ng·h/mL)
Quick reminder: number only, in ng·h/mL, skip the unit.

Q. Entry under review: COC(=O)Nc1cc(C(F)(F)F)c(-c2nc(N3CCOCC3)c3cc(CN4CCN(S(C)(=O)=O)CC4)cn3n2)cn1 . Reported AUC(0-t)?
A. 763

###

- assay-info: Clinical pharmacokinetics: plasma CYH33 and I27 by LC/MS/MS
- Format: in vivo, human
- setup-conditions: human, plasma, oral, 40 mg, CYH33, Cycle 1 Day 28, 40mg (n=7); read-out: Tmax, median
parameter: Tmax (h)
Give your result in h as a bare value.

Q. Tmax for COC(=O)Nc1cc(C(F)(F)F)c(-c2nc(N3CCOCC3)c3cc(CN4CCN(S(C)(=O)=O)CC4)cn3n2)cn1 ?
A. 4

###

- assay-info: Clinical pharmacokinetics: plasma CYH33 and I27 by LC/MS/MS
- Format: in vivo, human
- setup-conditions: C1D28, 1 mg, 1 h
parameter: CYH33 plasma concentration, mean (ng/mL)
Give the value, in units of ng/mL, as a plain number.

Q. So what does the record say about CYH33 plasma concentration, mean for COC(=O)Nc1cc(C(F)(F)F)c(-c2nc(N3CCOCC3)c3cc(CN4CCN(S(C)(=O)=O)CC4)cn3n2)cn1 [CYH33] ?
A. 4.57

###

- assay-info: Clinical pharmacokinetics: plasma CYH33 and I27 by LC/MS/MS
- Assay type: in vivo, human
- setup-conditions: human, plasma, oral; C1D1, 40 mg, 24 h
parameter: concentration at 24 h (µg/mL)
Value expressed in µg/mL; do not type the unit.

Q. Sample COC(=O)Nc1cc(C(F)(F)F)c(-c2nc(N3CCOCC3)c3cc(CN4CCN(S(C)(=O)=O)CC4)cn3n2)cn1 — what was its concentration at 24 h?
A. 0.0452
